B1: Formin-binding protein 4, residues 593 to 636; numbered along this chain, Q8N3X1 (parent)
chain: EINATPKGWSCHWDRDHRRYFYVNEQSGESQWEFPDGEEEEEES

Variants of: B1
Assay: abundance fitness (aPCA) (normalised: wild type 0, dead -1); higher = more abundant; growth selection in yeast, the domain comes from the species named
Conditions: Homo sapiens
Outcome: 1 (yes) for abundance fitness of at least -0.3; 0 (no) for anything lower.

(Q) Has `E42M` a recorded abundance fitness greater than or equal to -0.3?
(A) 1 (yes)

(Q) Has `D16A` a recorded abundance fitness greater than or equal to -0.3?
(A) 1 (yes)

(Q) Has `R19E` a recorded abundance fitness greater than or equal to -0.3?
(A) 0 (no)

(Q) Has `E38Q` a recorded abundance fitness greater than or equal to -0.3?
(A) 1 (yes)

(Q) Has `D36I` a recorded abundance fitness greater than or equal to -0.3?
(A) 1 (yes)

(Q) Has `V23Q` a recorded abundance fitness greater than or equal to -0.3?
(A) 1 (yes)

(Q) Has `W9K` a recorded abundance fitness greater than or equal to -0.3?
(A) 0 (no)

(Q) Has `F21Q` a recorded abundance fitness greater than or equal to -0.3?
(A) 1 (yes)

(Q) Has `E39P` a recorded abundance fitness greater than or equal to -0.3?
(A) 1 (yes)

(Q) Has `D14Y` a recorded abundance fitness greater than or equal to -0.3?
(A) 0 (no)

(Q) Has `S44Q` a recorded abundance fitness greater than or equal to -0.3?
(A) 1 (yes)

(Q) Has `E41G` a recorded abundance fitness greater than or equal to -0.3?
(A) 1 (yes)

(Q) Has `F34C` a recorded abundance fitness greater than or equal to -0.3?
(A) 1 (yes)

(Q) Has `S10V` a recorded abundance fitness greater than or equal to -0.3?
(A) 1 (yes)

(Q) Has `R19N` a recorded abundance fitness greater than or equal to -0.3?
(A) 0 (no)

(Q) Has `W13A` a recorded abundance fitness greater than or equal to -0.3?
(A) 0 (no)

(Q) Has `D36W` a recorded abundance fitness greater than or equal to -0.3?
(A) 1 (yes)

(Q) Has `E39V` a recorded abundance fitness greater than or equal to -0.3?
(A) 1 (yes)

(Q) Has `E39G` a recorded abundance fitness greater than or equal to -0.3?
(A) 1 (yes)

(Q) Has `E43G` a recorded abundance fitness greater than or equal to -0.3?
(A) 1 (yes)

(Q) Has `W32E` a recorded abundance fitness greater than or equal to -0.3?
(A) 1 (yes)

(Q) Has `N24A` a recorded abundance fitness greater than or equal to -0.3?
(A) 0 (no)

(Q) Has `D36R` a recorded abundance fitness greater than or equal to -0.3?
(A) 1 (yes)

(Q) Has `E43R` a recorded abundance fitness greater than or equal to -0.3?
(A) 1 (yes)

(Q) Has `E25Q` a recorded abundance fitness greater than or equal to -0.3?
(A) 1 (yes)

(Q) Has `K7S` a recorded abundance fitness greater than or equal to -0.3?
(A) 1 (yes)

(Q) Has `Y20Q` a recorded abundance fitness greater than or equal to -0.3?
(A) 1 (yes)

(Q) Has `E25V` a recorded abundance fitness greater than or equal to -0.3?
(A) 1 (yes)

(Q) Has `E42G` a recorded abundance fitness greater than or equal to -0.3?
(A) 1 (yes)

(Q) Has `Q31P` a recorded abundance fitness greater than or equal to -0.3?
(A) 0 (no)

(Q) Has `D14C` a recorded abundance fitness greater than or equal to -0.3?
(A) 0 (no)

(Q) Has `F21H` a recorded abundance fitness greater than or equal to -0.3?
(A) 0 (no)

(Q) Has `G28A` a recorded abundance fitness greater than or equal to -0.3?
(A) 0 (no)

(Q) Has `E43P` a recorded abundance fitness greater than or equal to -0.3?
(A) 1 (yes)

(Q) Has `T5S` a recorded abundance fitness greater than or equal to -0.3?
(A) 0 (no)

(Q) Has `F34A` a recorded abundance fitness greater than or equal to -0.3?
(A) 1 (yes)

(Q) Has `P35W` a recorded abundance fitness greater than or equal to -0.3?
(A) 0 (no)

(Q) Has `S27G` a recorded abundance fitness greater than or equal to -0.3?
(A) 0 (no)

(Q) Has `W13P` a recorded abundance fitness greater than or equal to -0.3?
(A) 0 (no)

(Q) Has `E40L` a recorded abundance fitness greater than or equal to -0.3?
(A) 1 (yes)

(Q) Has `S10L` a recorded abundance fitness greater than or equal to -0.3?
(A) 0 (no)

(Q) Has `W13I` a recorded abundance fitness greater than or equal to -0.3?
(A) 0 (no)

(Q) Has `W9P` a recorded abundance fitness greater than or equal to -0.3?
(A) 0 (no)

(Q) Has `D36Q` a recorded abundance fitness greater than or equal to -0.3?
(A) 1 (yes)

(Q) Has `E43K` a recorded abundance fitness greater than or equal to -0.3?
(A) 1 (yes)

(Q) Has `D36H` a recorded abundance fitness greater than or equal to -0.3?
(A) 1 (yes)
